// provenance: patent US11046728B2

biological target: GABA receptor α1β2γ2 (Homo sapiens, UniProt P14867+P47870); construct: expressed in transfected cells; host or cells: LTK cells, stably transfected; assay: Patch clamp electrophysiology, Qpatch in Ltk cells; format: cell-based; conditions: 10 μM test article, GABA EC20 = 2 μM, read-out: GABA (α1β2γ2) Qpatch in Ltk, % efficacy at 10 μM
Sequence (P14867 28-456): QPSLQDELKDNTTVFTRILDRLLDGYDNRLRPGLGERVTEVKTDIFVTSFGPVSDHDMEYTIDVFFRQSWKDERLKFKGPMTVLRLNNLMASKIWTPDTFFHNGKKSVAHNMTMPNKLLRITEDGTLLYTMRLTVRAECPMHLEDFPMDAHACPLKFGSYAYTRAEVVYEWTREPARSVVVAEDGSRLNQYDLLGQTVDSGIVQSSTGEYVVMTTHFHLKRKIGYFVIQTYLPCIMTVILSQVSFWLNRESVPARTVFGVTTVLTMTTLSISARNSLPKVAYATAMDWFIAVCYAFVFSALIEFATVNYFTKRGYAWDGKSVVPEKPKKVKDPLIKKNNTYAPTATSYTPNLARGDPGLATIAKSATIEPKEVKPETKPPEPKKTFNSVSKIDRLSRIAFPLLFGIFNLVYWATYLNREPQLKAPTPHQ
Sequence (P47870 25-512 limits assumed): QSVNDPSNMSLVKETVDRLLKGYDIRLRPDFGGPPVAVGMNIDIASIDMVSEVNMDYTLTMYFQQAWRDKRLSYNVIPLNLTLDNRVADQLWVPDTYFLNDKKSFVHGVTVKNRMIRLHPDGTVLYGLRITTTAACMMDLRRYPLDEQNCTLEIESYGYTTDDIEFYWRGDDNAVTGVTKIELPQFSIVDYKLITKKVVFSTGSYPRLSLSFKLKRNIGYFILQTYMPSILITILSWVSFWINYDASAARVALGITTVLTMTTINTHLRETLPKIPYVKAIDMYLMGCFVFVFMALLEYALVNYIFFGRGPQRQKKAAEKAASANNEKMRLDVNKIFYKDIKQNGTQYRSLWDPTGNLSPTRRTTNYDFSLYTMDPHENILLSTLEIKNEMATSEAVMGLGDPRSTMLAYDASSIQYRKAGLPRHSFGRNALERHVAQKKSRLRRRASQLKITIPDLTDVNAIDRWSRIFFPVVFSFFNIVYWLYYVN
Sequence (P18507 40-475 partner): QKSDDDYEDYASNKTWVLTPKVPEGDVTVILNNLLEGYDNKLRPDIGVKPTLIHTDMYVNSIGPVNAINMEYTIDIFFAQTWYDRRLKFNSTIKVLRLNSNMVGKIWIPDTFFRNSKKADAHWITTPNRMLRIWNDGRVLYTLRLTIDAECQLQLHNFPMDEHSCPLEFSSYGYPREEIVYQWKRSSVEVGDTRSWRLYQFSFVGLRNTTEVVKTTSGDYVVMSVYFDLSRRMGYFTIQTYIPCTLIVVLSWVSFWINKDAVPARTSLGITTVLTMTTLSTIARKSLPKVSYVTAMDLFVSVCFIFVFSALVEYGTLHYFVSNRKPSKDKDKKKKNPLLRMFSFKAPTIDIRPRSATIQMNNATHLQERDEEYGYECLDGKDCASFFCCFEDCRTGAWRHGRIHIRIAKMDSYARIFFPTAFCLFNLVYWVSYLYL
MEASUREMENT TYPE: Emax at 10 µM

[
  {
    "MOLECULE": "CO[C@H]1C[C@]2(C)[C@@H](C#N)CC[C@H]2[C@@H]2CC[C@@H]3C[C@H](O)CC[C@]3(C)[C@H]21 [Compound 28]",
    "MEASUREMENT TYPE": "Emax at 10 µM",
    "READOUT VALUE": "> 500%"
  },
  {
    "MOLECULE": "CCO[C@H]1C[C@@]2(C)[C@@H](CC[C@H]3[C@@H]4CC[C@H](C#N)[C@@]4(C)CC(=O)[C@@H]32)C[C@@H]1O [Compound 19]",
    "MEASUREMENT TYPE": "Emax at 10 µM",
    "READOUT VALUE": "> 500%"
  },
  {
    "MOLECULE": "CO[C@H]1C[C@]2(C)[C@H](C#N)CC[C@H]2[C@@H]2CC[C@H]3C[C@H](O)[C@H](C)C[C@]3(C)[C@H]21 [Compound 46]",
    "MEASUREMENT TYPE": "Emax at 10 µM",
    "READOUT VALUE": "10 to 100%"
  },
  {
    "MOLECULE": "CCO[C@H]1C[C@@]2(C)[C@@H](CC[C@@H]3[C@@H]2[C@@H](O)C[C@]2(C)[C@@H](C#N)CC[C@@H]32)C[C@@H]1O [Compound 10]",
    "MEASUREMENT TYPE": "Emax at 10 µM",
    "READOUT VALUE": "> 500%"
  },
  {
    "MOLECULE": "CCCO[C@H]1C[C@@]2(C)[C@@H](CC[C@H]3[C@@H]4CC[C@H](C#N)[C@@]4(C)CC(=O)[C@@H]32)C[C@@H]1O [Compound 21]",
    "MEASUREMENT TYPE": "Emax at 10 µM",
    "READOUT VALUE": "> 500%"
  },
  {
    "MOLECULE": "CCCO[C@H]1C[C@@]2(C)[C@@H](CC[C@@H]3[C@@H]2CC[C@]2(C)[C@@H](C#N)CC[C@@H]32)C[C@@H]1O [Compound 16]",
    "MEASUREMENT TYPE": "Emax at 10 µM",
    "READOUT VALUE": "> 500%"
  }
]

---

biological target: GABA receptor α4β3δ (Homo sapiens, UniProt P28472+P48169); construct: expressed in transfected cells; host or cells: CHO cells, transiently transfected; assay: Patch clamp electrophysiology, manual patch in CHO cells; type: cell-based; conditions: 10 μM test article, GABA EC20 = 2 μM, read-out: GABA (α4β3δ) Manual patch in CHO, % efficacy at 10 μM
Sequence (P48169 36-554): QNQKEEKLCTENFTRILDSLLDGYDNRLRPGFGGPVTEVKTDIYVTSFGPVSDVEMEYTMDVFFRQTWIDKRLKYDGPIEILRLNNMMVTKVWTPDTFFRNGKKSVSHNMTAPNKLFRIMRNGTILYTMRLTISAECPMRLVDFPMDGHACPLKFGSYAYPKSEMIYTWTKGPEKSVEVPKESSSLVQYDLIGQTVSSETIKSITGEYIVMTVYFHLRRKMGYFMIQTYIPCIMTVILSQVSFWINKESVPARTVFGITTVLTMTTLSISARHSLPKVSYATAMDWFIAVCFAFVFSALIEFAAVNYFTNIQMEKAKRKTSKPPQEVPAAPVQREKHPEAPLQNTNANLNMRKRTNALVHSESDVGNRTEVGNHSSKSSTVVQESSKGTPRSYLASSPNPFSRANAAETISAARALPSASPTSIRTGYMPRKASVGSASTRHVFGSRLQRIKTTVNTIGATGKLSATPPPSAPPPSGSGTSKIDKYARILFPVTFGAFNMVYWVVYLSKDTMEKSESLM
Sequence (P28472 26-473): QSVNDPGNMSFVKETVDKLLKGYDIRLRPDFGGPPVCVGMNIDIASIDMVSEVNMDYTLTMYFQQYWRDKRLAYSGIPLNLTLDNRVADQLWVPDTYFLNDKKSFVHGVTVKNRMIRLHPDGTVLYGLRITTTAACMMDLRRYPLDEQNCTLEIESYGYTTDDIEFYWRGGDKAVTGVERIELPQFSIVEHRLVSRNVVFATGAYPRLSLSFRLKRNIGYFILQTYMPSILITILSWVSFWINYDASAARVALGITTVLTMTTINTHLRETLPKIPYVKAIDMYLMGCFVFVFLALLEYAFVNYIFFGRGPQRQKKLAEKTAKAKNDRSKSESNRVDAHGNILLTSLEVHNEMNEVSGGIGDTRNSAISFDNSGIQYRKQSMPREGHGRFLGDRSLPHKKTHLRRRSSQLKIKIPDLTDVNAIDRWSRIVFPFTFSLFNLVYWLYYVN
Sequence (O14764 25-452 partner): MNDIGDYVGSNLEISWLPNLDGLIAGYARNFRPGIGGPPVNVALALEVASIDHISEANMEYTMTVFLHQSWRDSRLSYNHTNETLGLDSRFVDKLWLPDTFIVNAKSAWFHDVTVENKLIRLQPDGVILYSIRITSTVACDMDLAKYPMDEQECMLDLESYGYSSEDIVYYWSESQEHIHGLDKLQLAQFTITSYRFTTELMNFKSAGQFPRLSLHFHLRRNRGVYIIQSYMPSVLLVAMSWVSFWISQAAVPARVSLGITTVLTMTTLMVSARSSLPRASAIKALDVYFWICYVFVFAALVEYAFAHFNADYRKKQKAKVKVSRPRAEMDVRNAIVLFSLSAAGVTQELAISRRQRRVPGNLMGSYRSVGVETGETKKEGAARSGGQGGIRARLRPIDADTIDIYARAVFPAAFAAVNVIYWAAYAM

[
  {
    "SMILES ENTRY": "CO[C@H]1C[C@]2(C)[C@@H](C#N)CC[C@H]2[C@@H]2CC[C@H]3C[C@H](O)CC[C@]3(C)[C@H]21",
    "TARGET OF ASSAY": "GABA receptor α4β3δ (Homo sapiens, UniProt P28472+P48169)",
    "Emax at 10 µM": "100 to 500%"
  },
  {
    "SMILES ENTRY": "C[C@]12CC[C@@H](O)C[C@H]1CC[C@@H]1[C@@H]2[C@@H](O)C[C@]2(C)[C@@H](C#N)CC[C@@H]12",
    "TARGET OF ASSAY": "GABA receptor α4β3δ (Homo sapiens, UniProt P28472+P48169)",
    "Emax at 10 µM": "10 to 100%"
  },
  {
    "SMILES ENTRY": "CO[C@H]1C[C@@]2(C)[C@@H](CC[C@H]3[C@@H]4CC[C@H](C#N)[C@@]4(C)CC(=O)[C@@H]32)C[C@@H]1O",
    "TARGET OF ASSAY": "GABA receptor α4β3δ (Homo sapiens, UniProt P28472+P48169)",
    "Emax at 10 µM": "100 to 500%"
  },
  {
    "SMILES ENTRY": "CCCO[C@H]1C[C@@]2(C)[C@@H](CC[C@@H]3[C@@H]2CC[C@]2(C)[C@@H](C#N)CC[C@@H]32)C[C@@H]1O",
    "TARGET OF ASSAY": "GABA receptor α4β3δ (Homo sapiens, UniProt P28472+P48169)",
    "Emax at 10 µM": "100 to 500%"
  }
]

---

molecular target: TBPS binding, rat brain cortical membranes in the presence of 5 μM GABA; experiment: 35S-TBPS displacement (steroid inhibition of TBPS binding); conditions: read-out: 35S-TBPS Radioligand Displacement (IC50)
pIC50: −log10 of the molar value.
MEASUREMENT TYPE: pIC50

[
  {
    "MOLECULE": "CO[C@H]1C[C@]2(C)[C@@H](C#N)CC[C@H]2[C@@H]2CC[C@H]3C[C@H](O)[C@H](C)C[C@]3(C)[C@H]21",
    "MEASUREMENT TYPE": "pIC50",
    "READOUT VALUE": "7.00 to 7.30"
  },
  {
    "MOLECULE": "CCO[C@H]1C[C@@]2(C)[C@@H](CC[C@H]3[C@@H]4CC[C@@H](C#N)[C@@]4(C)CC(=O)[C@@H]32)C[C@@H]1O",
    "MEASUREMENT TYPE": "pIC50",
    "READOUT VALUE": "< 6.30"
  },
  {
    "MOLECULE": "C[C@]12C[C@H](OCCO)[C@@H](O)C[C@@H]1CC[C@@H]1[C@@H]2CC[C@]2(C)[C@@H](C#N)CC[C@@H]12",
    "MEASUREMENT TYPE": "pIC50",
    "READOUT VALUE": "< 6.30"
  },
  {
    "MOLECULE": "CO[C@H]1C[C@@]2(C)[C@@H](CC[C@H]3[C@@H]4CC[C@H](C#N)[C@@]4(C)CC(=O)[C@@H]32)C[C@@H]1O",
    "MEASUREMENT TYPE": "pIC50",
    "READOUT VALUE": "< 6.30"
  },
  {
    "MOLECULE": "CO[C@H]1C[C@]2(C)[C@@H](C#N)CC[C@H]2[C@@H]2CC[C@@H]3C[C@H](O)CC[C@]3(C)[C@H]21",
    "MEASUREMENT TYPE": "pIC50",
    "READOUT VALUE": "6.30 to 7.00"
  },
  {
    "MOLECULE": "CC(C)CO[C@H]1C[C@]2(C)C3CC[C@]4(C)[C@@H](C#N)CC[C@H]4[C@@H]3CC[C@H]2C[C@@H]1O (stereo partly shown)",
    "MEASUREMENT TYPE": "pIC50",
    "READOUT VALUE": "> 8.00"
  },
  {
    "MOLECULE": "C[C@H]1[C@H](O)CC[C@@]2(C)[C@H]1CC[C@H]1[C@@H]3CC[C@H](C#N)[C@@]3(C)CC(=O)[C@@H]12",
    "MEASUREMENT TYPE": "pIC50",
    "READOUT VALUE": "< 6.30"
  },
  {
    "MOLECULE": "C[C@H]1C[C@@]2(C)[C@@H](CC[C@H]3[C@@H]4CC[C@H](C#N)[C@@]4(C)CC(=O)[C@@H]32)C[C@@H]1O",
    "MEASUREMENT TYPE": "pIC50",
    "READOUT VALUE": "6.30 to 7.00"
  },
  {
    "MOLECULE": "C[C@]12C[C@H](OC(F)(F)F)[C@@H](O)C[C@@H]1CC[C@@H]1[C@@H]2CC[C@]2(C)[C@@H](C#N)CC[C@@H]12",
    "MEASUREMENT TYPE": "pIC50",
    "READOUT VALUE": "< 6.30"
  },
  {
    "MOLECULE": "C[C@]12CC[C@@H](O)C[C@H]1CC[C@@H]1[C@@H]2[C@@H](O)C[C@]2(C)[C@H](C#N)CC[C@@H]12",
    "MEASUREMENT TYPE": "pIC50",
    "READOUT VALUE": "< 6.30"
  },
  {
    "MOLECULE": "C[C@H]1C[C@@]2(C)[C@@H](CC[C@@H]3[C@@H]2[C@@H](O)C[C@]2(C)[C@@H](C#N)CC[C@@H]32)C[C@@H]1O",
    "MEASUREMENT TYPE": "pIC50",
    "READOUT VALUE": "6.30 to 7.00"
  },
  {
    "MOLECULE": "CO[C@H]1C[C@]2(C)[C@@H](C#N)CC[C@H]2[C@@H]2CC[C@H]3[C@@H](C)[C@H](O)CC[C@]3(C)[C@H]21",
    "MEASUREMENT TYPE": "pIC50",
    "READOUT VALUE": "< 6.30"
  },
  {
    "MOLECULE": "CCCO[C@H]1C[C@@]2(C)[C@@H](CC[C@@H]3[C@@H]2CC[C@]2(C)[C@H](C#N)CC[C@@H]32)C[C@@H]1O",
    "MEASUREMENT TYPE": "pIC50",
    "READOUT VALUE": "< 6.30"
  }
]
